src = ChEMBL document CHEMBL1671830

Known CC50 at 96 h of a selection of molecules
# Assay procedure: Cytotoxicity against human HuH7 cells after 96 hrs by MTS assay
# Type: cell-based, Huh-7

Molecule	Measured
CCCOc1nc(N)nc2c1ncn2[C@@H]1O[C@H](COP(=O)(N[C@@H](C)C(=O)OC(C)C)Oc2ccccc2)[C@@H](O)[C@@]1(C)F (stereo partly drawn)	49 µM
COC(=O)[C@H](C)NP(=O)(OC[C@H]1O[C@@H](n2cnc3c(N4CCC4)nc(N)nc32)[C@](C)(F)[C@@H]1O)Oc1ccccc1 (stereo partly drawn)	> 100 µM

In one line, give reported CC50 at 96 h of the entry CCOC(=O)[C@H](C)NP(=O)(OC[C@H]1O[C@@H](n2cnc3c(O)nc(N)nc32)[C@](C)(F)[C@@H]1O)Oc1ccccc1 (stereo partly drawn) . > 100 µM
